The origin of these recorded values is the supplement of paper PMC10567573.

B1: ADAMTS4 (parent)
chain: HVDPEEPWSPCSARFITDFLDNGY

- Variants of: B1
- experimental protocol: protein stability index of a GFP-peptide fusion (GPS, HEK-293T) (PSI 1-6); higher = more stable;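 further: lentivirally expressed fusions sorted by FACS into six bins by GFP to DsRed ratio, PSI derived from sequencing read proportions per bin multiplied by bin number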
- experimental parameters: c terminus: a fixed tail appended
property label: protein stability index
Give the value as a plain number.

Example results:
>>> numeric_readout("HVDPMEPWSPCSARFITDFLDNGY")
2.17
>>> numeric_readout("HVDPEEPWSPCSARFQTDFLDNGY")
2.07
>>> numeric_readout("HVDPEEPWSPCSARFITDFLDNVY")
2.27
>>> numeric_readout("HVDPEEPWSPCSKRFITDFLDNGY")
2.08
>>> numeric_readout("HVDPEEPWSPCSARFATDFLDNGY")
2.13

Attention now shifts to the item below.
Fill in: protein stability index of HVDPEEPWSPCSARVITDFLDNGY is ___ 1.91
